Biological target: α4β1 integrin (Homo sapiens, UniProt P05556+P13612)
Construct: endogenous in cells; host or cells: Ramos cells
Sequence (P13612 34-1032): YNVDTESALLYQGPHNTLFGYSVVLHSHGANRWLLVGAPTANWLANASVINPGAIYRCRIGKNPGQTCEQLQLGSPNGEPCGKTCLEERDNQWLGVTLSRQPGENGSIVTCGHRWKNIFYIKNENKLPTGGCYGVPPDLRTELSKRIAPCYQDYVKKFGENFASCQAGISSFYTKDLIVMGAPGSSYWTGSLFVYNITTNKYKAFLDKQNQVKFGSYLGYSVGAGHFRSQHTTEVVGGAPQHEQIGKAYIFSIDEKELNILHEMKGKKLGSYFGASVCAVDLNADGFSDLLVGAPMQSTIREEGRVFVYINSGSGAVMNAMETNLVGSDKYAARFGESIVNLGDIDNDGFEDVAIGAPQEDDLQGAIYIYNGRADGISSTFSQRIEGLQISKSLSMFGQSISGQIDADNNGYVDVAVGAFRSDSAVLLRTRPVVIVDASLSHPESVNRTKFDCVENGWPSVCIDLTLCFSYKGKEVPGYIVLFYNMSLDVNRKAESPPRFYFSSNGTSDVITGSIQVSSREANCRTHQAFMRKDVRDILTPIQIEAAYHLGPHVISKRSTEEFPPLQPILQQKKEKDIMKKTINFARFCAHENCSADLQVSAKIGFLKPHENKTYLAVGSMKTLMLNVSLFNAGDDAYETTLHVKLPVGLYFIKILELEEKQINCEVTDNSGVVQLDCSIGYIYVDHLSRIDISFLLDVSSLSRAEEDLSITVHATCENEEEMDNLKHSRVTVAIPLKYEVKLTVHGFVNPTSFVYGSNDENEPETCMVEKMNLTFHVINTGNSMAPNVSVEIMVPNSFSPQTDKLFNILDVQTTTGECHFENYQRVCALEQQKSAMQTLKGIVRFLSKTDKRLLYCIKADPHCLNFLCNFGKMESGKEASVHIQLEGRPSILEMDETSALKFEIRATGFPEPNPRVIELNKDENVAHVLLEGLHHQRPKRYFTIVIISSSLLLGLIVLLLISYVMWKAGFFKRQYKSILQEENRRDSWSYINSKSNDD
Sequence (P05556 21-798): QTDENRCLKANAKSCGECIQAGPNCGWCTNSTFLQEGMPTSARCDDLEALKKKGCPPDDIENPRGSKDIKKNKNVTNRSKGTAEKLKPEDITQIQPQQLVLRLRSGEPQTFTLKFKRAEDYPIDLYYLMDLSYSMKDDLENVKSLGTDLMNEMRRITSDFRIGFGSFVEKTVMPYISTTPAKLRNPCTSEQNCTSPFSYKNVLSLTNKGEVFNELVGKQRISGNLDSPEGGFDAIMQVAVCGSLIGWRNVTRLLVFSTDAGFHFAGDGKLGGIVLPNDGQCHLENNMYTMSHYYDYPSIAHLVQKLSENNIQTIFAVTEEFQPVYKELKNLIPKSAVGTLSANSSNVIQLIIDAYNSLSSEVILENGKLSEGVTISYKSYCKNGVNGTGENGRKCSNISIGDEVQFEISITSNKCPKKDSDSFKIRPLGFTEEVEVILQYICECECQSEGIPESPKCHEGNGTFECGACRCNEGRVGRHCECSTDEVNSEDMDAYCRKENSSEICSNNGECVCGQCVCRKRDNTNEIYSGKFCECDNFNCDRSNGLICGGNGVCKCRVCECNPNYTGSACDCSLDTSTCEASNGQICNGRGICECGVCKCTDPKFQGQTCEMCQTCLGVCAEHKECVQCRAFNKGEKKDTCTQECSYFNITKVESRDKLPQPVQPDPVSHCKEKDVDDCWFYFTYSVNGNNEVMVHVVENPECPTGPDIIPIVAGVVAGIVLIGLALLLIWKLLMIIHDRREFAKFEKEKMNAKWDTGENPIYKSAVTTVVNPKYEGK
Assay: Adhesion of calcein-labeled Ramos cells to CS1 (fibronectin) peptide conjugated ovalbumin
Assay type: cell-based
Details: Table 5; Ramos cell adhesion to CS1 conjugated ovalbumin; dose required to give 50% inhibition
pIC50: −log10 of the molar value.
Tag: True if measured pIC50 is not below 7, False if it is.

compound	category
Cc1ccc([C@H](CC(=O)O)NC(=O)Nc2c(O)c3c(n(Cc4ccccc4Cl)c2=O)CCCC3)cc1	True
Cc1ccc([C@H](CC(=O)O)NC(=O)Nc2cccn(Cc3cccc(C(C)(C)C)c3O)c2=O)cc1	False
O=C(O)CC(NC(=O)Nc1c(O)ccn(Cc2ccccc2Cl)c1=O)c1cccc2ccccc12 (stereo not drawn)	False
Cc1ccc(N(CC(=O)O)NC(=O)Nc2c(O)ccn(Cc3ccccc3Cl)c2=O)cc1	False
Cc1ccc([C@H](CC(=O)O)NC(=O)Nc2c(O)ccn(Cc3ccc(S(=O)(=O)N(C)C)cc3)c2=O)cc1	True
Cc1ccc([C@H](CC(=O)O)NC(=O)Nc2c(O)c3c(n(Cc4ccccc4Cl)c2=O)CCC3)cc1	True
COc1cc(Cl)ccc1Cn1ccc(O)c(NC(=O)N[C@@H](CC(=O)O)c2ccc(C)cc2)c1=O	True
Cc1ccc([C@H](CC(=O)O)NC(=O)Nc2c(O)c(C)cn(Cc3c(C)cccc3Cl)c2=O)cc1	True

---

Molecular target: α4β1 integrin (Homo sapiens, UniProt P05556+P13612)
Construct: endogenous in cells; host or cells: Ramos cells
Assay: Adhesion of calcein-labeled Ramos cells to CS1 (fibronectin) peptide conjugated ovalbumin
Format: cell-based
Details: Table 6; Ramos cell adhesion to CS1 conjugated ovalbumin, 30 minutes at 37° C.
pIC50: −log10 of the molar value.

sample_smiles	pIC50
CCOc1cc(OCC)cc([C@H](CC(=O)O)NC(=O)Nc2c(O)ccn(Cc3ccccc3Cl)c2=O)c1	8.15
CCOc1ccc([C@H](CC(=O)O)NC(=O)Nc2c(O)c3c(n(Cc4ccccc4Cl)c2=O)CCC3)cc1OCC	8.52
CCOc1cccc([C@H](CC(=O)O)NC(=O)Nc2c(O)c3c(n(Cc4ccccc4Cl)c2=O)CCC3)c1	8.52
O=C(O)C[C@@H](Cc1ccccc1Cl)NC(=O)Nc1c(O)ccn(Cc2ccccc2Cl)c1=O	6.15

---

Target: α4β1 integrin (Homo sapiens, UniProt P05556+P13612)
Construct: endogenous in cells; host or cells: Ramos cells
Experiment: Adhesion of calcein-labeled Ramos cells to CS1 (fibronectin) peptide conjugated ovalbumin
Assay type: cell-based
Conditions: Table 7; Ramos cell adhesion to CS1 conjugated ovalbumin; dose required to give 50% inhibition

sample_smiles	study_system	unit_spec	IC50
Cc1cccc(Cl)c1Cn1c2c(c(O)c(NC(=O)N[C@@H](CC(=O)O)c3cccc(OCC4CC4)c3)c1=O)CCC2	α4β1 integrin (Homo sapiens, UniProt P05556+P13612)	nM	10
CCCOc1cccc([C@H](CC(=O)O)NC(=O)Nc2c(O)c3c(n(Cc4ccccc4Cl)c2=O)CCC3)c1	α4β1 integrin (Homo sapiens, UniProt P05556+P13612)	nM	15
CCOc1cccc(Cl)c1Cn1c2c(c(O)c(NC(=O)N[C@@H](CC(=O)O)c3ccc4cc(OC)ccc4c3)c1=O)CCC2	α4β1 integrin (Homo sapiens, UniProt P05556+P13612)	nM	2
CCOc1cccc(Cl)c1Cn1cc(C)c(O)c(NC(=O)N[C@@H](CC(=O)O)c2cccc(C(F)(F)F)c2)c1=O	α4β1 integrin (Homo sapiens, UniProt P05556+P13612)	nM	3

---

The reader will find reported IC50 values listed item by item below.
Biological target: α4β1 integrin (Homo sapiens, UniProt P05556+P13612)
Construct: endogenous in cells; host or cells: Ramos cells
Experiment: Adhesion of calcein-labeled Ramos cells to CS1 (fibronectin) peptide conjugated ovalbumin
Assay type: cell-based
Conditions: Table 4; Ramos cell adhesion to CS1 conjugated ovalbumin, 30 minutes at 37° C.
Excerpt: A procedure in which a 26-amino acid peptide containing the CS1 sequence of fibronectin with an N-terminal Cys ([…]) was coupled to maleimide activated ovalbumin was used to determine the efficacy of the compounds synthesized. […] Following three washes with binding buffer, adherent cells were lysed and quantitated using a fluorometer. […]
attribute_measured: IC50 (nM)

sample_smiles	value_observed
Cc1ccc([C@H](CC(=O)O)NC(=O)Nc2cccn(Cc3c(F)cccc3F)c2=O)cc1	300
O=C(O)C[C@H](NC(=O)Nc1cccn(Cc2ccccc2Cl)c1=O)c1ccc(F)c(C(F)(F)F)c1	200
Cc1ccc([C@H](CC(=O)O)NC(=O)Nc2cccn(Cc3cc(C)ccc3C)c2=O)cc1	150
Cc1ccc([C@H](CC(=O)O)NC(=O)Nc2cc(Cl)cc(Cc3ccccc3)c2O)cc1	8000
Cc1ccc([C@H](CC(=O)O)NC(=O)Nc2cccn(Cc3c(Cl)cccc3[N+](=O)[O-])c2=O)cc1	4000
Cc1ccc([C@H](CC(=O)O)NC(=O)Nc2cccn(Cc3cc(Cl)ccc3Cl)c2=O)cc1	150
Cc1ccccc1[C@H](CC(=O)O)NC(=O)Nc1cccn(Cc2ccccc2Cl)c1=O	3000
O=C(O)C[C@H](NC(=O)Nc1cccc(NCc2cccs2)c1)c1ccc2c(c1)OCO2	5000
Cc1ccc([C@H](CC(=O)O)NC(=O)Nc2cccn(Cc3cc(Cl)ccc3F)c2=O)cc1	2500

---

Biological target: α4β1 integrin (Homo sapiens, UniProt P05556+P13612)
Construct: endogenous in cells; host or cells: Ramos cells
Experiment: Adhesion of calcein-labeled Ramos cells to CS1 (fibronectin) peptide conjugated ovalbumin
Format: cell-based
Conditions: Table 3; Ramos cell adhesion to CS1 conjugated ovalbumin, 30 minutes at 37° C.
# note: boundary value 0.01 µM maps to No; IC50 below it maps to Yes

compound	study_system	category
O=C(O)C[C@H](NC(=O)Nc1c(O)ccn(Cc2ccccc2Cl)c1=O)c1ccc(C(F)(F)F)cc1	α4β1 integrin (Homo sapiens, UniProt P05556+P13612)	No
O=C(O)CC(NC(=O)Nc1c(O)ccn(Cc2ccccc2Cl)c1=O)c1ccc(Cl)c(Cl)c1 (stereo not drawn)	α4β1 integrin (Homo sapiens, UniProt P05556+P13612)	No
COc1cccc([C@H](CC(=O)O)NC(=O)Nc2c(O)ccn(Cc3ccccc3Cl)c2=O)c1	α4β1 integrin (Homo sapiens, UniProt P05556+P13612)	Yes
Cc1ccc([C@H](CC(=O)O)NC(=O)Nc2c(Cl)ccn(Cc3ccccc3Cl)c2=O)cc1	α4β1 integrin (Homo sapiens, UniProt P05556+P13612)	No
CC(C)(C)c1ccc([C@H](CC(=O)O)NC(=O)Nc2c(O)ccn(Cc3ccccc3Cl)c2=O)cc1	α4β1 integrin (Homo sapiens, UniProt P05556+P13612)	No

---

Molecular target: α4β1 integrin (Homo sapiens, UniProt P05556+P13612)
Construct: endogenous in cells; host or cells: Ramos cells
Test: Adhesion of calcein-labeled Ramos cells to CS1 (fibronectin) peptide conjugated ovalbumin
Assay type: cell-based
Settings: Table 6; Ramos cell adhesion to CS1 conjugated ovalbumin, 30 minutes at 37° C.
The reader will find reported log10 of IC50 values listed item by item below.
attribute_measured: log10 of IC50 (log10 of the value in nM)

sample_smiles	value_observed
CCOc1cccc([C@H](CC(=O)O)NC(=O)Nc2c(O)c(C)nn(Cc3ccccc3Cl)c2=O)c1	0.70
COc1cc(Cn2cc(C)c(O)c(NC(=O)N[C@@H](CC(=O)O)c3ccc(C)cc3)c2=O)cc(OC)c1	1.85
CCOc1ccc([C@H](CC(=O)O)NC(=O)Nc2c(O)c(C3CC3)cn(Cc3ccccc3Cl)c2=O)cc1OCC	0.78
CCOc1cccc([C@H](CC(=O)O)NC(=O)Nc2c(O)ccn(Cc3c(Cl)cccc3OCC)c2=O)c1	0.48
Cc1ccc([C@H](CC(=O)O)NC(=O)Nc2c(O)c(C)cn([C@@H](C)c3ccccc3)c2=O)cc1	3.18
CCOc1cccc([C@H](CC(=O)O)NC(=O)Nc2c(O)c(C3CC3)cn(Cc3ccccc3Cl)c2=O)c1	1.15
Cc1ccc([C@H](CC(=O)O)NC(=O)Nc2c(O)c(C)cn(Cc3c(F)cccc3C(F)(F)F)c2=O)cc1	2.00
CCOc1cccc([C@H](CC(=O)O)NC(=O)Nc2c(O)c3c(n(Cc4c(C)cccc4Cl)c2=O)CCC3)c1	0.60

---

The reader will find reported pIC50 values listed item by item below.
Target: α4β1 integrin (Homo sapiens, UniProt P05556+P13612)
Construct: endogenous in cells; host or cells: Ramos cells
Test: Adhesion of calcein-labeled Ramos cells to CS1 (fibronectin) peptide conjugated ovalbumin
Assay type: cell-based
Conditions: Table 5; Ramos cell adhesion to CS1 conjugated ovalbumin; dose required to give 50% inhibition
pIC50: −log10 of the molar value.

sample_smiles	pIC50
CCCOc1cccc([C@H](CC(=O)O)NC(=O)Nc2c(O)ccn(Cc3ccccc3Cl)c2=O)c1	8.52
Cc1ccc([C@H](CC(=O)O)NC(=O)Nc2c(O)ccn(Cc3ccccc3Br)c2=O)cc1	7.82
CCCCOc1cccc([C@H](CC(=O)O)NC(=O)Nc2c(O)ccn(Cc3ccccc3Cl)c2=O)c1	8.30
CCOc1ccc([C@H](CC(=O)O)NC(=O)Nc2c(O)c(C)c(C)n(Cc3ccccc3Cl)c2=O)cc1OCC	8.52
